Here we list molecules with their recorded pIC50 when tested on mGluR5 receptor (Sus scrofa).
Structures can show the parent of a compound that is named as a salt.
One number for each entry, as −log10 of the molar value.

Molecule: CN(CCNC(=O)C#Cc1cccc(Cl)c1)c1ncc(C#N)s1
pIC50: 6.66

I'm hoping you can list pIC50 for every molecule here, please.
1. O=C(C#Cc1ccccc1)NC1CN(c2nccs2)C1
2. CN(CCNC(=O)C#Cc1cccc(Cl)c1)c1nc2ccccc2s1
3. CN(C(=O)C#Cc1cccc(Cl)c1)C1CCCN(c2nccs2)C1 (stereo not shown)
4. O=C(C#Cc1ccccc1)NC1CCCN(c2nccs2)C1 (stereo not shown)
5. CN(C(=O)C#Cc1ccccc1)C1CN(c2nccs2)C1
6. CN(C(=O)C#Cc1ccccc1)C1CCN(c2nccs2)C1 (stereo not shown) [Example 2, hydrochloride]

1. 4.99
2. 5.56
3. 7.66
4. 7.07
5. 6.55
6. 5.88

I'm hoping you can list pIC50 for every molecule here, please.
1. Cc1cccc(C#CC(=O)NCCN(C)c2nccs2)c1
2. CN(CCNC(=O)C#Cc1cccc(Cl)c1)c1nccs1
3. CN(c1ncc(F)s1)C1CCN(C(=O)C#Cc2cccc(Cl)c2)C1 (stereo not shown)

1: 8.08; 2: 8.72; 3: 7.15

---

- Target or test system: mGluR5 receptor (Sus scrofa, UniProt I3LUI7)
- Construct: pig brain hemispheres without medulla, cerebellum and pons ... differential centrifugation at 900×g and 40,000×g
- Sequence (I3LUI7 1-1212): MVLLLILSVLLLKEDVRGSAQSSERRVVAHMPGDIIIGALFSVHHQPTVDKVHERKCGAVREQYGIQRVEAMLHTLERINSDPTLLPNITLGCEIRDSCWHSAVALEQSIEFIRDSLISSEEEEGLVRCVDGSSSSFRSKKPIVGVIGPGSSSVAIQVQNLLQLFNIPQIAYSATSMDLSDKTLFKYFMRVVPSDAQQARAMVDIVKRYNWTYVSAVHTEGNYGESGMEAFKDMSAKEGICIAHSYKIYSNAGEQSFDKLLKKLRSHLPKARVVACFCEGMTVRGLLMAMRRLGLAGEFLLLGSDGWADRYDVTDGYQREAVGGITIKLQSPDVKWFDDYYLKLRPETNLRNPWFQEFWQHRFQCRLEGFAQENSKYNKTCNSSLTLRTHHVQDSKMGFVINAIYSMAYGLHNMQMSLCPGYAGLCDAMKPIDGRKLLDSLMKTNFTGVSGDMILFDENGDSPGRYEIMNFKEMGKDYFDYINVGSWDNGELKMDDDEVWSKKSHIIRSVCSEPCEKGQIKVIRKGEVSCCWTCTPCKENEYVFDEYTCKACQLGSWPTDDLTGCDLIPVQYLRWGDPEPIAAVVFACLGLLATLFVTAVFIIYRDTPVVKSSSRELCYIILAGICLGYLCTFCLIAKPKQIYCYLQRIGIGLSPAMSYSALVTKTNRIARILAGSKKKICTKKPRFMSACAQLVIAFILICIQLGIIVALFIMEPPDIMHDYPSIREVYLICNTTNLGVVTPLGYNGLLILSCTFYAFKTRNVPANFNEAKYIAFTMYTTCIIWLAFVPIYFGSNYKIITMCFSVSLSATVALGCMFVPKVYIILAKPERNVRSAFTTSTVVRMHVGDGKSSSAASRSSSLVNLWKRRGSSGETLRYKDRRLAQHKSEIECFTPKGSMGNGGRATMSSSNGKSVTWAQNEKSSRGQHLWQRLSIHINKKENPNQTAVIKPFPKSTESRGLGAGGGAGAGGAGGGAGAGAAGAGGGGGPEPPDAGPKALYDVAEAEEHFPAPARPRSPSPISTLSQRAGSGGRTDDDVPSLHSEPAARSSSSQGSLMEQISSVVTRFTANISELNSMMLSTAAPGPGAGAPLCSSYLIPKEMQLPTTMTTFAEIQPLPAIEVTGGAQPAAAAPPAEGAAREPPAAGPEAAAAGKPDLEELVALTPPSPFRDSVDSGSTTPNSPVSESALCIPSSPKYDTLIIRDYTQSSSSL
- Test details: Inhibition of [^3H]-MPEP binding in the mGluR5 receptor binding assay (pig brain homogenate)
- Condition parameters: 1 μM test compound, 5 nM [^3H]-MPEP
Readout name: inhibition at 1 µM (%)
One number for each entry, in %.

Some solved cases for reference:
Compound: Cc1cccc(C#CC(=O)NC2CCN(c3nc(C)cs3)C2)c1 (centres unmarked) [Example 72]
Readout name: inhibition at 1 µM
Recorded number: 87
--
Compound: COc1cccc(C#CC(=O)NC2CCN(c3nc(C)c(C)s3)C2)c1 (centres unmarked) [Example 90]
Readout name: inhibition at 1 µM
Recorded number: 34
--
Compound: CC(C)(C)c1csc(N2CCC(NC(=O)C#Cc3cccc(Cl)c3)C2)n1 (centres unmarked) [Example 100]
Readout name: inhibition at 1 µM
Recorded number: 38
--
Compound: CC(C)(C)c1csc(N2CCC(NC(=O)C#Cc3ccc(F)cc3)C2)n1 (centres unmarked) [Example 57]
Readout name: inhibition at 1 µM
Recorded number: 26

For the compound CC(C)(C)c1csc(N2CCC(NC(=O)C#Cc3cccnc3)C2)n1 (centres unmarked) [Example 123] , report inhibition at 1 µM. 20

---

Here we list molecules with their recorded IC50 when tested on mGluR5 receptor (Sus scrofa, UniProt I3LUI7).
Give bare numbers, in nM.

Molecule: CN(CCNC(=O)C#Cc1cccc(Cl)c1)c1nccs1.Cl [Example 23, hydrochloride]
Target or test system: mGluR5 receptor (Sus scrofa, UniProt I3LUI7)
IC50 [nM]: 5.6

I'm hoping you can list IC50 for every molecule here, please.
1. Cc1csc(N(C)CCNC(=O)C#Cc2cccc(Cl)c2)n1
2. CN(CC(=O)N(C)c1nccs1)C(=O)C#Cc1ccccc1
3. CN(C(=O)C#Cc1cccc(Cl)c1)C1CN(c2nccs2)C1

1. 27
2. 4970
3. 17

I'm hoping you can list IC50 for every molecule here, please.
1. CN(CCNc1nccs1)C(=O)C#Cc1ccccc1
2. CCOC(=O)c1csc(N(C)CCNC(=O)C#Cc2cccc(Cl)c2)n1
3. CN(CCN(C)c1nccs1)C(=O)C#Cc1ccccn1

1: 1860; 2: 86; 3: 1250

---

- Target or test system: mGluR5 receptor (Sus scrofa, UniProt I3LUI7)
- Construct: pig brain hemispheres without medulla, cerebellum and pons ... differential centrifugation at 900×g and 40,000×g
- Test details: Inhibition of [^3H]-MPEP binding in the mGluR5 receptor binding assay (pig brain homogenate)
- Condition parameters: 1 μM test compound, 5 nM [^3H]-MPEP
Readout name: inhibition at 1 µM (%)
One number for each entry, in %.

Some solved cases for reference:
Compound: Cc1ccc(C#CC(=O)NC2CCN(c3nc(C(C)(C)C)cs3)C2)cc1 (centres unmarked) [Example 56]
Target or test system: mGluR5 receptor (Sus scrofa, UniProt I3LUI7)
Recorded number: 37
//
Compound: COc1ccc(C#CC(=O)NC2CCN(c3nc(C(C)(C)C)cs3)C2)cc1 (centres unmarked) [Example 55]
Target or test system: mGluR5 receptor (Sus scrofa, UniProt I3LUI7)
Recorded number: 26
//
Compound: CC(C)(C)c1csc(N2CCC(NC(=O)C#Cc3cccc(F)c3)C2)n1 (centres unmarked) [Example 59]
Target or test system: mGluR5 receptor (Sus scrofa, UniProt I3LUI7)
Recorded number: 34
//
Compound: Cc1cnc(N2CCC(NC(=O)C#Cc3cccc(Cl)c3)C2)s1 (centres unmarked) [Example 112]
Target or test system: mGluR5 receptor (Sus scrofa, UniProt I3LUI7)
Recorded number: 24

For the compound COc1cccc(C#CC(=O)NC2CCN(c3ncc(C)s3)C2)c1 (centres unmarked) [Example 78] , report inhibition at 1 µM. 26

---

- Target or test system: mGluR5 receptor (Sus scrofa)
pIC50: −log10 of the molar value.
Would you mind labelling by pIC50? At or over 6 is True, under is False.

Please check the record "CN(CCNC(=O)C#Cc1ccccc1)c1nccs1" and state if its pIC50 is at or above 6. True

Please check the record "CN(CCNC(=O)C#Cc1cccc(Cl)c1)c1nc(Cl)cs1" and state if its pIC50 is at or above 6. True

Please check the record "Cc1cccc(C#CC(=O)N(C)CCN(C)c2nccs2)c1" and state if its pIC50 is at or above 6. True

Please check the record O=C(C#Cc1ccccc1)N1CCC(Nc2nccs2)C1 (centres unmarked) and state if its pIC50 is at or above 6. False

---

- Target or test system: mGluR5 receptor (Homo sapiens, UniProt P41594)
- Sequence (P41594 21-1212): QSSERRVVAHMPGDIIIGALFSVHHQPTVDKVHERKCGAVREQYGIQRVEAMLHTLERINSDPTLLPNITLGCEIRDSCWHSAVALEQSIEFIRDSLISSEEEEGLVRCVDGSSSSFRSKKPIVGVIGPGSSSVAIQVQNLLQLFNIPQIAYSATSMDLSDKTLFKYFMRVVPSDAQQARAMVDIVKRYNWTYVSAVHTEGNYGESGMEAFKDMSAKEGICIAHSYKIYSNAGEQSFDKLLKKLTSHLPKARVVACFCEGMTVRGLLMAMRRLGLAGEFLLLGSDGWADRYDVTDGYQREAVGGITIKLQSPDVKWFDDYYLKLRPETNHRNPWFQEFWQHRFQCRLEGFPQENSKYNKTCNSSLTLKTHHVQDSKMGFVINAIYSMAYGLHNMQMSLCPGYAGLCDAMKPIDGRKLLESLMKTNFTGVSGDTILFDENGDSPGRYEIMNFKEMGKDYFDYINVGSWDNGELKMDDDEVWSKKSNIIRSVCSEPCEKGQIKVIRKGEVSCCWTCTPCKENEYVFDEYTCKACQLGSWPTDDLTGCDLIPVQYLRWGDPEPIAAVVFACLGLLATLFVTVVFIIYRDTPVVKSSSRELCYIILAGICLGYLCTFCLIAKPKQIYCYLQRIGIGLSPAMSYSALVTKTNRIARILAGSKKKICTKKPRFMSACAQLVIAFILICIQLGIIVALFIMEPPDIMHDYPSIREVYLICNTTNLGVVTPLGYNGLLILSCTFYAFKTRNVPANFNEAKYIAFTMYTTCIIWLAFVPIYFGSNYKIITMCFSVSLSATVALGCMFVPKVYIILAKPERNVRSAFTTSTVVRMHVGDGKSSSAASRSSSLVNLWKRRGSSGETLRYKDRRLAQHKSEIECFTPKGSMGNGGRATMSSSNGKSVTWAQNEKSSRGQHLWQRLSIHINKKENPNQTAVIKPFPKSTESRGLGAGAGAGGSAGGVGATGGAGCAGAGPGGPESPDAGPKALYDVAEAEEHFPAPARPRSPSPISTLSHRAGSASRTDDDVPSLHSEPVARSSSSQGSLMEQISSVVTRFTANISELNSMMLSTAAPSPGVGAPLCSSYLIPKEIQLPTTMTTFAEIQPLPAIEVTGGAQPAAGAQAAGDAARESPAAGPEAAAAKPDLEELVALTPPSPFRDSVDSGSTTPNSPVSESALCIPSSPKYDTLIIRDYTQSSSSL
- Test details: Functional Ca^2+ influx assay in the mGluR5 receptor assay (CHO-hmGluR5 cells, DHPG 10 μM)
- Condition parameters: Ki=IC50/(1+(AGconc./EC50))
Readout name: log10 of Ki (log10 of the value in nM)
Parameter value (number): base-10 log of Ki in nM.

Some solved cases for reference:
Compound: O=C(C#Cc1cccc(Cl)c1)NC1CCCN(c2nccs2)C1 (centres unmarked)
Target or test system: mGluR5 receptor (Homo sapiens, UniProt P41594)
Recorded number: 0.60
//
Compound: CN(CCN(C)c1nccs1)C(=O)C#Cc1cccc(Cl)c1
Target or test system: mGluR5 receptor (Homo sapiens, UniProt P41594)
Recorded number: 0.69
//
Compound: CN(c1nccs1)C1CN(C(=O)C#Cc2cccc(Cl)c2)C1
Target or test system: mGluR5 receptor (Homo sapiens, UniProt P41594)
Recorded number: 0.81
//
Compound: CN(CCN(C)c1nccs1)C(=O)C#Cc1ccccc1
Target or test system: mGluR5 receptor (Homo sapiens, UniProt P41594)
Recorded number: 0.72
//
Compound: CN(CCNC(=O)C#Cc1cccc(Cl)c1)c1nccs1
Target or test system: mGluR5 receptor (Homo sapiens, UniProt P41594)
Recorded number: -0.40
//
Compound: O=C(C#Cc1ccccc1)NC1CCCN(c2nccs2)C1 (centres unmarked)
Target or test system: mGluR5 receptor (Homo sapiens, UniProt P41594)
Recorded number: 1.16
//
Compound: CCOC(=O)c1csc(N(C)CCNC(=O)C#Cc2cccc(Cl)c2)n1
Target or test system: mGluR5 receptor (Homo sapiens, UniProt P41594)
Recorded number: 0.56
//
Compound: CN(CCNC(=O)C#Cc1cccc(Cl)c1)c1nc(Br)cs1
Target or test system: mGluR5 receptor (Homo sapiens, UniProt P41594)
Recorded number: 1.00

I'm hoping you can list log10 of Ki for every compound here, please.
1. CN(CCN(C)c1nccs1)C(=O)C#Cc1cccc(C#N)c1
2. CN(CCNC(=O)C#Cc1ccccc1)c1nccs1

1: 1.32; 2: 0.00

For the compound "Cc1cccc(C#CC(=O)N(C)CCN(C)c2nccs2)c1" , report log10 of Ki. 0.68
